Record form. Attribute: EC50. Fill in for each entry.
target: CIC-1 channels (Rattus norvegicus)
Sequence (P35524 whole entry): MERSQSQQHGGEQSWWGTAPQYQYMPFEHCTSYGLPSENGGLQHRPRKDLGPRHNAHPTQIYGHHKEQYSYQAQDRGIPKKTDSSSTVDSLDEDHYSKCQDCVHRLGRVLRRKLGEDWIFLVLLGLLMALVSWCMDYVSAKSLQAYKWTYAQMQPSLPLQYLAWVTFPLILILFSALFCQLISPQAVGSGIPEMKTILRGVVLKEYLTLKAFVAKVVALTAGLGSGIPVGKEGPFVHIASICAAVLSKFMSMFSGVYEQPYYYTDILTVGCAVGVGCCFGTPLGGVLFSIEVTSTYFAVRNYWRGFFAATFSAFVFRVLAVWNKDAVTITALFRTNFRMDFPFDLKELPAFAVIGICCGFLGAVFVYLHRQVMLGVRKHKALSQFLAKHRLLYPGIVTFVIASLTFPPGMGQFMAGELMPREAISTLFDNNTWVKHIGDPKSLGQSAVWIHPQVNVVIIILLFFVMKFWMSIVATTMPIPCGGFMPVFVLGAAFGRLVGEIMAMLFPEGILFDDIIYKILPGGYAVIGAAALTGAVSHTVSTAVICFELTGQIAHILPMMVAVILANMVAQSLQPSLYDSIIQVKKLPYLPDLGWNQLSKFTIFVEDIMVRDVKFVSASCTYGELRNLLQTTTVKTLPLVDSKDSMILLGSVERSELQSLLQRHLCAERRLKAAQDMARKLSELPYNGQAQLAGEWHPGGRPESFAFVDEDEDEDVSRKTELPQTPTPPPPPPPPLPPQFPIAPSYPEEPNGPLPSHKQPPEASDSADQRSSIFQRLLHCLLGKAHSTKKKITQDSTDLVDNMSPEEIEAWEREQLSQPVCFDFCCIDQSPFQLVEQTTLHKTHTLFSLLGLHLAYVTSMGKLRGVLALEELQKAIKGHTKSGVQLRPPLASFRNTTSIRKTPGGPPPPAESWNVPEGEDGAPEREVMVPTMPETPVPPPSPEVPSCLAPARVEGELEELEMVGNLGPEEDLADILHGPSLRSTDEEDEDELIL
protocol-summary: Electrophysiological measurement of compound inhibition of CIC-1 in rat muscle (Gm, three micro-electrodes technique)
measurement-context: reduction of Gm in fibres of whole rat soleus muscles, approx. 30°C; n = number of experiments
From the text: Table 2: Inhibition of CIC-1 ion channel using compounds of the invention
Numbers only, in µM.

Use the examples below as a reference point.
compound="O=C(O)[C@@H](Oc1ccc(Br)cc1F)C1CC1 [Compound A-89]" unit_annotation=µM measured=8.7
compound="O=C(O)[C@H](CCF)Oc1ccc(Br)cc1F [Compound A-85]" unit_annotation=µM measured=10
compound="O=C(O)[C@H](CCF)Oc1ccc(Br)cc1I [Compound A-83]" unit_annotation=µM measured=8
compound="C#CC[C@H](Oc1ccc(Br)cc1Cl)C(=O)O [Compound A-67]" unit_annotation=µM measured=9.4

Give the reported value of EC50 for this record: O=C(O)[C@H](CCF)Oc1ccc(Br)cc1 [Compound A-87] 4.5
